- assay.target: AmpC (P99) (Enterobacter cloacae, UniProt P05364)
- Sequence (P05364 21-381): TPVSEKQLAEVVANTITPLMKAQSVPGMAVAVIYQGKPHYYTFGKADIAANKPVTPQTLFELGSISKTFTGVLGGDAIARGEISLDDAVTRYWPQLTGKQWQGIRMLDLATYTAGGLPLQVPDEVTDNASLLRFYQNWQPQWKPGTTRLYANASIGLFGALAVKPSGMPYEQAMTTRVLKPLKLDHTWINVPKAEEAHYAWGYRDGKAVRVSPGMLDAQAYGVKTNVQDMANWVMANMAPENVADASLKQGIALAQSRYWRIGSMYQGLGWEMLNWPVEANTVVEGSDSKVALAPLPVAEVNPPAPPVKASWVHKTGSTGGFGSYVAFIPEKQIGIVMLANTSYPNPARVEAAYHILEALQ
- measurement.description: β-lactamase inhibitory activity, determination of IC50 (nitrocefin hydrolysis)
Hi there, I'd appreciate the recorded pIC50 for every entry that follows.
Give bare numbers, as −log10 of the molar value.

Some compounds with known pIC50 results, for comparison:
compound	pIC50
O=C1N2CC=C(c3cnccn3)C(C2)N1OS(=O)(=O)[O-].[Na+] (stereo not shown)	5.85
O=C1N2CC(c3nc4ccccc4s3)=CC(C2)N1OS(=O)(=O)[O-].[Na+] (stereo not shown) [Example 27, sulfate]	8.04
O=C1N2CC(c3ncco3)=CC(C2)N1OS(=O)(=O)[O-].[Na+] (stereo not shown)	7.19

Shift focus to the following entry.
Query: Please state recorded pIC50 (tested on AmpC (P99) (Enterobacter cloacae, UniProt P05364)) of Cn1nccc1C1=CCN2CC1N(OS(=O)(=O)[O-])C2=O.[Na+] (stereo not shown) [Example 2, sulfate]
Response: 6.17

----------
- assay.target: CTX-M-15 (Escherichia coli)
- Construct: made in house; host or cells: E. coli
- Sequence (Q9EXV5 entry or part of it): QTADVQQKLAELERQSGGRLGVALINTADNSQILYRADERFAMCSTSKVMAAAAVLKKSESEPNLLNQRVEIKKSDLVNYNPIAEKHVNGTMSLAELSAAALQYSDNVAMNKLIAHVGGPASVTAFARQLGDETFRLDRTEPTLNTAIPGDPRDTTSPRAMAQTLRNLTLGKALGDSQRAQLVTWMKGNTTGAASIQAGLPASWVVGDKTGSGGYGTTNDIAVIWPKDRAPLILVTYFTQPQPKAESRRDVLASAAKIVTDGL
- measurement.description: β-lactamase inhibitory activity, determination of IC50 (nitrocefin hydrolysis)
- Format: biochemical
- condition.description: class (A); nitrocefin 200 μM, 30 min pre-incubation; read-out: IC50 β-lactamase CTX-M-15
Hi there, I'd appreciate the recorded IC50 for every entry that follows.
Give bare numbers, in nM.

Some molecules with known IC50 results, for comparison:
molecule	measure.unit	IC50
Cn1nc(C2=CCN3CC2N(OS(=O)(=O)[O-])C3=O)ccc1=O.[Na+] (stereo not drawn) [Example 17, sulfate]	nM	5.7
O=C1N2CC=C(c3cnco3)C(C2)N1OS(=O)(=O)[O-].[Na+] (stereo not drawn) [Example 3]	nM	2.8
NCc1cnc(C2=CC3CN(C2)C(=O)N3OS(=O)(=O)O)s1 (stereo not drawn) [Example 38]	nM	0.79
O=C1N2CC=C(c3ccncc3)C(C2)N1OS(=O)(=O)[O-].[Na+] (stereo not drawn) [Example 7]	nM	13
O=C1N2CC(c3cnoc3)=CC(C2)N1OS(=O)(=O)[O-].[Na+] (stereo not drawn) [Example 26, sulfate]	nM	5.7

For every record below, what is its IC50?
1. O=C1N2CC(c3ncco3)=C[C@H](C2)N1OS(=O)(=O)[O-].[Na+] [Example 44, sulfate]
2. O=C1N2CC=C(c3ccns3)C(C2)N1OS(=O)(=O)[O-].[Na+] (stereo not drawn) [Example 30, sulfate]
3. O=C1N2CC(c3cnco3)=CC(C2)N1OS(=O)(=O)[O-].[Na+] (stereo not drawn) [Example 35]
4. O=C1N2CC(c3ccncc3)=CC(C2)N1OS(=O)(=O)[O-].[Na+] (stereo not drawn) [Example 33]

Response:
0.61
1.8
0.81
0.79

----------
- assay.target: AmpC (P99) (Enterobacter cloacae, UniProt P05364)
- measurement.description: β-lactamase inhibitory activity, determination of IC50 (nitrocefin hydrolysis)
Hi there, I'd appreciate the recorded IC50 for every entry that follows.
Numbers only, in µM.

For every record below, what is its IC50?
1. O=C1N2CC(c3ccncc3)=CC(C2)N1OS(=O)(=O)[O-].[Na+] (stereo not shown) [Example 33]
2. Cn1ncc(C2=CCN3CC2N(OS(=O)(=O)[O-])C3=O)cc1=O.[Na+] (stereo not shown) [Example 19, sulfate]
3. O=C1N2CC=C(c3cnoc3)C(C2)N1OC(F)(F)C(=O)[O-].[Li+] (stereo not shown) [Example 6]
4. COc1ncc(C2=CCN3CC2N(OS(=O)(=O)[O-])C3=O)cn1.[Na+] (stereo not shown) [Example 24, sulfate]

Response:
[0.031, 0.94, 1.8, 1.1]
